tested on: HOP-92 NSCLC; test: NCI-60 one-dose screen, 48 h (100 = growth as untreated, 0 = no growth, -100 = all killed); settings: 10 µM unless noted
About 83,000 compounds went through this panel and 20% of them were active in at least one assay; those are over-represented in the sample as a whole.
// values below are reported growth
Output spec: scalar in %, unitless text.

// worked examples, growth included
molecule	target or test system	measurement
Cc1cc(-c2cc(O)ccc2Cl)cc2nnc(Nc3ccc(OCCN4CCCC4)cc3)nc12	HOP-92 NSCLC	-69.1
Cc1cc(C(=O)Nc2cc(Oc3ccc4nc(NC(=O)C5CC5)cn4n3)ccc2C)n(C)n1	HOP-92 NSCLC	-25.6
COC(=O)C1=C(C(=O)OC)C23C=C(C)C1C2=C(C)C1(CC1)[C@@](C)(O)C3=O (some centres not stated)	HOP-92 NSCLC	-19.3
CC(=Nc1ccccc1)C1=C(O)C(Cc2ccc(O)cc2)NC1=O (configuration not stated)	HOP-92 NSCLC	-10.1

[in] Record COC(=O)[C@H](Cc1ccc(O)cc1)NC(=O)[C@@H](OC)[C@@H]1Cc2cc3cc(OC4CC(OC5CC(O)C(O)C(C)O5)C(O)C(C)O4)c(C)c(O)c3c(O)c2C(=O)[C@H]1OC1CC(OC2CC(OC3CC(C)(O)C(O)C(C)O3)C(O)C(C)O2)C(O)C(C)O1 (some centres not stated) : what is its growth with HOP-92 NSCLC?
[out] 12.2

[in] Record CCNC(=O)Nc1nc2ccc(Oc3ccnc(C(=O)NC)c3)cc2s1 : what is its growth with HOP-92 NSCLC?
[out] 70.6

[in] Record COc1ccc(-c2cc3c(oc2=O)-c2ccccc2OC3OC(C)=O)cc1 (configuration not stated) : what is its growth with HOP-92 NSCLC?
[out] 83.5

----------
test system: OVCAR-3 ovarian; assay: NCI-60 one-dose screen, 48 h (100 = growth as untreated, 0 = no growth, -100 = all killed); settings: 10 µM unless noted
This is part of a sample that, as a whole, favours compounds with a hit. Of some 83,000 tested, about 20% had one in any assay.
quantity name: growth (%)
Output spec: scalar in %, unitless text.

// worked examples, growth included
compound	quantity name	measurement
CC(C)(C)C(=O)OCOP(=O)(OCOC(=O)C(C)(C)C)C1CCCN(OC(=O)c2ccccc2)C1=O (stereo unspecified)	growth	7.34
CC(=O)C1=C(C)NC(SCc2nnc(-c3ccc(C)cc3)o2)=NC1c1ccc(F)cc1 (stereo unspecified)	growth	105
CCCCCC(=O)OCc1ccc(Cl)c(Cl)c1	growth	106
COc1cc2cc(NCc3ccc(F)cc3)nc(C)c2cc1OC	growth	68.2
O=C(Cc1ccccc1)Nc1nnc(NC2CCN(c3nnc(NC(=O)Cc4ccccc4)s3)CC2)s1	growth	94.4

[in] Need growth, item COCc1c(-c2ccc(NC(=O)Nc3cc(C(F)(F)F)ccc3F)c(F)c2)c2c(N)ncnn2c1CN1CCOCC1
[out] 6.05

----------
Tested on: KM12 colon
Test: NCI-60 one-dose screen, 48 h
Details: 10 µM unless noted
Description: Growth inhibition of the KM12 human tumor cell line is measured as a screen for anti-cancer activity. Cells are grown in 96 well plates and exposed to the test compound for 48 hours. Compounds are tested at a single concentration, which is 10^-5 M for most compounds. The reported endpoint is percent growth (GI% or GIPRCNT), where numbers from 0 - 100% represent growth inhibition, and numbers from -100% - 0 represent cell death. For example, a value of 40 represents 60% growth inhibition. […]
Compounds without any hit were thinned out: in the full panel of roughly 83,000, 20% have a hit. The source made the active and inactive calls. How the source made its calls: active means growth percent below 10; inactive means the rest.
Mark one answer only. Choices: y (active), n (inactive)

Worked examples follow.
chem smiles	target or test system	assigned class
CS(=O)(=O)CCNCc1ccc(-c2ccc3ncnc(Nc4ccc(OCc5cccc(F)c5)c(Cl)c4)c3c2)o1	KM12 colon	y
CN1CCN(CC(=O)Nc2ccc(-c3nc4ccccc4s3)cc2)CC1	KM12 colon	n
CC(C)[C@@H]1CC[C@@H]2[C@@H]1[C@H](OC(=O)/C=C/c1ccccc1)[C@]1(C(C)C)C[C@@H](OC(=O)CO)[C@@]2(C)O1	KM12 colon	n

Now for another entry.
[in] Could you check what this test reported for COc1cc2cc(NCc3ccc(F)cc3)nc(C)c2cc1OC ?
[out] n

----------
tested on: SF-539 CNS; assay: NCI-60 one-dose screen, 48 h (100 = growth as untreated, 0 = no growth, -100 = all killed); settings: 10 µM unless noted
The panel holds about 83,000 compounds, 20% with a hit somewhere; the sample as a whole holds those more often.
Output 1.0 for growth not less than 70%; output 0.0 otherwise.

Worked examples follow.
compound	target or test system	assigned class
Cc1cccc(Cl)c1NC(=O)c1cnc(Nc2cc(N3CCOCC3)cc(S(C)(=O)=O)c2)s1	SF-539 CNS	0.0
O=C(Cn1c(=O)ccn(CCCCCCCCOc2ccc(Br)cc2)c1=O)Nc1ccc(Oc2ccc(Cl)cc2)cc1	SF-539 CNS	0.0
Cc1nc(-c2cn3c(n2)-c2ccc(-c4cnn(C(C)(C)C(N)=O)c4)cc2OCC3)n(C(C)C)n1	SF-539 CNS	0.0

[in] Please tell me: is the compound CNC(=O)c1cnc(C)nc1-c1cc(C(C)(C)C)c(O)c(C(C)(C)C)c1 at or over 70% in terms of growth?
[out] 1.0

[in] Please tell me: is the compound C[C@@H](Nc1cc(F)cc(F)c1)c1cc(C(=O)N(C)C)cc2c(=O)cc(N3CCOCC3)oc12 at or over 70% in terms of growth?
[out] 0.0

[in] Please tell me: is the compound Clc1ccc(C(Cn2ccnc2)OCc2ccsc2Cl)c(Cl)c1 (stereo not drawn) at or over 70% in terms of growth?
[out] 1.0

----------
test system: NCI-H522 lung; assay: NCI-60 one-dose screen, 48 h (100 = growth as untreated, 0 = no growth, -100 = all killed); conditions: 10 µM unless noted
The panel holds about 83,000 compounds, 20% with a hit somewhere; the sample as a whole holds those more often.
Category scheme (growth): class A (below 20%), class B (20% to below 70%), class C (70% or more)

Worked examples follow.
molecule	assigned class
C/C(=N\NC(=O)Cn1c(-c2ccc(S(C)(=O)=O)cc2)nc2ccccc21)c1ccc(Cl)cc1	class C
C=CC(=O)Nc1cccc(Nc2nc(Nc3ccc(N4CCN(C(C)=O)CC4)cc3OC)ncc2C(F)(F)F)c1	class A
COc1cc2c(Oc3ccc4[nH]c(C)cc4c3F)ncnc2cc1OCCCN1CCCC1	class C
CNC(=O)c1cc(Oc2ccc3nc(NC(=O)Nc4ccc(Cl)c(C(F)(F)F)c4)sc3c2)ccn1	class A
CO[C@H]1C[C@@H]2CC[C@@H](C)[C@@](O)(O2)C(=O)C(=O)N2CCCC[C@H]2C(=O)O[C@H]([C@H](C)C[C@@H]2CC[C@@H](O)[C@H](OC)C2)CC(=O)[C@H](C)/C=C(\C)[C@@H](O)[C@@H](OC)C(=O)[C@H](C)C[C@H](C)\C=C/C=C/C=C/1C	class B

Now for another entry.
[in] Any idea which band O=C(Nc1ccc(Nc2ncnc3sc4c(c23)CCOC4)cc1)Nc1ccc(Cl)c(C(F)(F)F)c1 is in?
[out] class B

----------
System: NCI-H460 lung
Assay: NCI-60 one-dose screen, 48 h (100 = growth as untreated, 0 = no growth, -100 = all killed)
Conditions: 10 µM unless noted
Method: Growth inhibition of the NCI-H460 human Non-Small Cell Lung tumor cell line is measured as a screen for anti-cancer activity. Cells are grown in 96 well plates and exposed to the test compound for 48 hours. Compounds are tested at a single concentration, which is 10^-5 M for most compounds. The reported endpoint is percent growth (GI% or GIPRCNT), where numbers from 0 - 100% represent growth inhibition, and numbers from -100% - 0 represent cell death. […]
This is part of a sample that, as a whole, favours compounds with a hit. Of some 83,000 tested, about 20% had one in any assay. Activity calls are given as the source filed them. The calls were made as follows: active = growth percent below 10; inactive = the rest.
quantity name: growth

// worked examples, growth included
molecule	target or test system	quantity name	measurement
COc1ccc(COc2cc3oc(=O)c4cc(C(C)O)ccc4c3cc2OC)cc1 (stereo not drawn)	NCI-H460 lung	growth	58.4% (inactive)
Cc1cc(N2CCCC2)nc(N(CCCNc2ccnc3cc(Cl)ccc23)Cc2ccc3c(c2)OCO3)n1	NCI-H460 lung	growth	5.83% (active)

In the following, a different molecule is considered.
[in] Need growth, item C[C@@H](NC(=O)c1ncnc(N)c1Cl)c1ncc(C(=O)Nc2cc(C(F)(F)F)c(Cl)cn2)s1
[out] 71.6% (inactive)

----------
// values below are reported growth
tested on: SR leukemia; assay: NCI-60 one-dose screen, 48 h (100 = growth as untreated, 0 = no growth, -100 = all killed); details: 10 µM unless noted
Compounds without any hit were thinned out: in the full panel of roughly 83,000, 20% have a hit.
Output spec: scalar in %, unitless text.

compound	quantity name	units label	measurement
Cc1cc(O)c2c(c1)C1OC(=O)CCCCCN1C1=C2C(=O)c2cccc(OC3CC(O)C(O)C(C)O3)c2C1=O (stereo not drawn)	growth	%	54.2
CCN1CCN(Cc2ccc(-c3cc4c(N[C@H](C)c5ccccc5)ncnc4[nH]3)cc2)CC1	growth	%	21.2

[in] Need growth, item Cn1cc(-c2ncnc3ccc(-c4cnc(Cl)c(NS(C)(=O)=O)c4)cc23)c2ccccc21
[out] 15.9
